B1: MBP-fused Apc1-loop^500 WT fragment [Xenopus tropicalis] / Plx1 (polo-like kinase homolog in Xenopus laevis), endogenous [Xenopus laevis (endogenous in egg extracts)] (parent)
chain 1: MAQVAGKKLTVAPEAAKPPGIPGSSSAVKEIPEILVDPRTRRRYLRGRFLGKGGFAKCYEITDLESREVFAGKIVPKTMLLKPHQKDKMTMEIAIQRSLDHRHVVGFHGFFEDNDFVYVVLELCRRRSLLELHKRRKAVTEPEARYYLKQTISGCQYLHSNRVIHRDLKLGNLFLNDEMEVKIGDFGLATKVEYDGERKKTLCGTPNYIAPEVLGKKGHSFEVDIWSIGCIMYTLLVGKPPFETSCLKETYMRIKKNEYSIPKHINPVAAALIQKMLRSDPTSRPTIDDLLNDEFFTSGYIPSRLPTTCLTVPPRFSIAPSTIDQSLRKPLTAINKGQDSPLVEKQVAPAKEEEMQQPEFTEPADCYLSEMLQQLTCLNAVKPSERALIRQEEAEDPASIPIFWISKWVDYSDKYGLGYQLCDNSVGVLFNDSTRLIMYNDGDSLQYIERNNTESYLNVRSYPTTLTKKITLLKYFRNYMSEHLLKAGANTTPREGDELARLPFLRTWFRTRSAIILHLSNGTVQINFFQDHTKIILCPLMAAVSYIDEKREFRTYKLSLIQEFGCCKELASRLRYARTMVEKLQSSKSAVAHVKASA
chain 2: GLAAPSLGMSNPMPRPSTPLESISTPAKPLNKHLAPMDEAGMLSPVPELRDSTRLHESTYLDDCTFHQFG

variants of: B1; test: MBP pull-down (amylose beads) from Xenopus egg anaphase extracts, immunoblot with Plx1 antibody, quantified; conditions: anaphase extracts supplemented with non-degradable cyclin B, 23°C, 1 h, parent: 1, read off a plot
reportedEndpoint: ratio to parent (A.U.)
Write it as a number; the unit A.U. goes unstated.

The variant listed as chain 2 T18A T25A shows ratio to parent equal to 0.51

The variant listed as chain 2 S44A shows ratio to parent equal to 0.5

The variant listed as chain 2 T18A shows ratio to parent equal to 0.92

The variant listed as chain 2 T25A shows ratio to parent equal to 0.61
